B1: CPEB3 Ribozyme (parent)
chain: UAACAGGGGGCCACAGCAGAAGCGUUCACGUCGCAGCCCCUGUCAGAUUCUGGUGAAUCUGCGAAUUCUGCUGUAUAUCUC

Variants of: B1
ASSAY_METHOD_TEXT: self-cleavage, relative activity (ratio to wild type); higher = more cleavage; in vitro, sequencing
Would you mind labelling by self-cleavage? At or over 0.4 is True, under is False.

Ask: Kindly determine if self-cleavage recorded for A15G A75G is above or exactly 0.4.
Reply: True

Ask: Evaluate U48G U66C : self-cleavage at minimum 0.4?
Reply: True

Ask: hey, is self-cleavage for this one >= 0.4? A5C G63C
Reply: True

---
Ask: Would you say A15G U66G shows self-cleavage at minimum 0.4?
Reply: False

Ask: Decide: self-cleavage of C39A A47G >= 0.4?
Reply: False

Ask: Evaluate U25C U48C : self-cleavage at minimum 0.4?
Reply: False

Ask: Dear colleague, could you confirm whether U26C C71A has self-cleavage at or above 0.4?
Reply: False

Ask: Please check the record A13U A77U and state if its self-cleavage is at or above 0.4.
Reply: True

Values compiled from the RNAGym collection of RNA variant scans (doi:10.1093/nar/gkz1192).
